study system: AKT2 (Homo sapiens, UniProt P31751)
Construct: expressed in transfected cells; host or cells: HEK293
Sequence (P31751 whole entry): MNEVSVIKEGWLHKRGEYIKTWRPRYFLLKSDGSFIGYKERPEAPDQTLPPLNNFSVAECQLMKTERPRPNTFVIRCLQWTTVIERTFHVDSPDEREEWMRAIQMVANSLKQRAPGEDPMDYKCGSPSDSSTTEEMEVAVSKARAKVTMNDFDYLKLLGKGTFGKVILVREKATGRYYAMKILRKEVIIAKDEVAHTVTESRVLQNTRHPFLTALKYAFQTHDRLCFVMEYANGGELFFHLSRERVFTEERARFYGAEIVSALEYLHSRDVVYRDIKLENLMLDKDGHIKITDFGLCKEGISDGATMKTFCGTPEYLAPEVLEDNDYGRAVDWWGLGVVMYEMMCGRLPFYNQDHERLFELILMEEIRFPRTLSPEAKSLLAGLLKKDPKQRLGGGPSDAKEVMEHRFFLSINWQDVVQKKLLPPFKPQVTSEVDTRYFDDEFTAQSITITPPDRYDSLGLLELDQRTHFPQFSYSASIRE
assay protocol: Live cell AKT2 target engagement by NanoBRET competitive probe displacement in HEK293 cells
Type: binding
condition label: NanoBRET live cell target engagement, HEK293 cells, 2 h at 37° C.; read-out: AKT2 IC50
IC50 vs 100 nM: less than gives TRUE; not less than gives FALSE.

Lookup: Please let me know if Nc1ncccc1-c1nc2ccc(-n3cccn3)nc2n1-c1ccc2c(c1)CC[C@@H]2NC(=O)c1cnc2c(c1)CCC2 shows IC50 below 100 nM.
Found: TRUE

Lookup: Please let me know if Nc1ncccc1-c1nc2ccc(-n3cccn3)nc2n1-c1ccc2c(c1)CC[C@@H]2NC(=O)c1ccnc(OC2CC2)c1 shows IC50 below 100 nM.
Found: TRUE

Lookup: Please let me know if CN(C)c1ccc(F)c(C(=O)N[C@H]2CCc3cc(-n4c(-c5cccnc5N)nc5ccc(-n6cccn6)nc54)ccc32)c1 shows IC50 below 100 nM.
Found: FALSE

Lookup: Please let me know if Cc1nccnc1C(=O)N[C@H]1CCc2cc(-n3c(-c4cccnc4N)nc4ccc(-c5cnn(C)n5)nc43)ccc21 shows IC50 below 100 nM.
Found: FALSE

Lookup: Please let me know if Nc1ncccc1-c1nc2ccc(-n3cccn3)nc2n1-c1ccc2c(c1)CC[C@@H]2NCc1ccnc(OC(F)(F)F)c1 shows IC50 below 100 nM.
Found: FALSE

Lookup: Please let me know if COc1cc(C(=O)N[C@H]2CCc3cc(-n4c(-c5cccnc5N)nc5ccc(-n6cccn6)nc54)ccc32)ccc1O shows IC50 below 100 nM.
Found: FALSE

Lookup: Please let me know if CCc1cc(C(=O)N[C@H]2CCc3cc(-n4c(-c5cccnc5N)nc5ccc(-n6cccn6)nc54)ccc32)ccn1 shows IC50 below 100 nM.
Found: TRUE

----------
study system: AKT1 WT (Homo sapiens)
Construct: expressed in transfected cells; host or cells: HEK293
Sequence (P31749 whole entry): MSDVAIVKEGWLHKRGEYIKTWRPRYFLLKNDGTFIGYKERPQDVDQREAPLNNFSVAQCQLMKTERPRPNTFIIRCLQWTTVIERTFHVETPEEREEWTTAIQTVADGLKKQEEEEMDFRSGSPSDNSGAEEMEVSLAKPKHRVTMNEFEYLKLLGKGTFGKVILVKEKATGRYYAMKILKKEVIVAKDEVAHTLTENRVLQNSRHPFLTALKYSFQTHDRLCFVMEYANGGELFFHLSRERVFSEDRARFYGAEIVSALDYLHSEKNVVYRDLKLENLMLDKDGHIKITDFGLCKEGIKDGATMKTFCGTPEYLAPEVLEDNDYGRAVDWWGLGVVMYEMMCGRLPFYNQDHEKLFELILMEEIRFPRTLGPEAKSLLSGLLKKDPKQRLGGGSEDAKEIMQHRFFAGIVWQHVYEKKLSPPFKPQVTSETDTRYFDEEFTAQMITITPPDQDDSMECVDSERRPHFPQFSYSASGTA
assay protocol: Live cell AKT1 WT target engagement by NanoBRET competitive probe displacement in HEK293 cells
Format: binding
condition label: NanoBRET live cell target engagement, HEK293 cells, 2 h at 37° C.; read-out: AKT1 WT IC50
IC50 vs 10 nM: less than gives 1; not less than gives -1.

Lookup: Please let me know if Nc1ncccc1-c1nc2ccc(-n3cccn3)nc2n1-c1ccc2c(c1)CC[C@@H]2NC(=O)c1cnc(C(F)F)cc1F shows IC50 below 10 nM.
Found: -1

Lookup: Please let me know if Nc1ncccc1-c1nc2ccc(-n3cccn3)nc2n1-c1ccc2c(c1)CC[C@@H]2n1cc(C2CC2(F)F)nn1 (some centres unmarked) shows IC50 below 10 nM.
Found: -1

Lookup: Please let me know if Cc1ncc(F)cc1C(=O)N[C@H]1CCc2cc(-n3c(-c4cccnc4N)nc4ccc(-n5cccn5)nc43)ccc21 shows IC50 below 10 nM.
Found: 1

Lookup: Please let me know if Cc1cc(C(=O)N[C@H]2CCc3cc(-n4c(-c5cccnc5N)nc5ccc(-n6cccn6)nc54)ccc32)cnc1C(F)F shows IC50 below 10 nM.
Found: 1

Lookup: Please let me know if Cc1ncsc1C(=O)N[C@H]1CCc2cc(-n3c(-c4cccnc4N)nc4ccc(-n5cccn5)nc43)ccc21 shows IC50 below 10 nM.
Found: -1

Lookup: Please let me know if Nc1ncccc1-c1nc2ccc(-n3nccn3)nc2n1-c1ccc2c(c1)CC[C@@H]2NCc1ccc(C(F)F)nc1 shows IC50 below 10 nM.
Found: -1

Lookup: Please let me know if Cc1csc(-c2ccc3nc(-c4cccnc4N)n(-c4ccc5c(c4)CC[C@@H]5n4ccnn4)c3n2)n1 shows IC50 below 10 nM.
Found: -1

Lookup: Please let me know if Nc1ncccc1-c1nc2ccc(-n3nccn3)nc2n1-c1ccc2c(c1)CC[C@@H]2NC(=O)c1ccnc2occc12 shows IC50 below 10 nM.
Found: -1

Lookup: Please let me know if COc1nccc(C(=O)N[C@H]2CCc3cc(-n4c(-c5cccnc5N)nc5ccc(-n6nccn6)nc54)ccc32)c1C shows IC50 below 10 nM.
Found: -1

Lookup: Please let me know if Cc1ncccc1CN[C@H]1CCc2cc(-n3c(-c4cccnc4N)nc4ccc(-n5cccn5)nc43)ccc21 shows IC50 below 10 nM.
Found: -1

Lookup: Please let me know if CC#Cc1cc(C(=O)N[C@H]2CCc3cc(-n4c(-c5cccnc5N)nc5ccc(-n6cccn6)nc54)ccc32)ccn1 shows IC50 below 10 nM.
Found: 1

Lookup: Please let me know if Nc1ncccc1-c1nc2ccc(-n3cccn3)nc2n1-c1ccc2c(c1)CC[C@@H]2NC(=O)c1cccc(CO)c1 shows IC50 below 10 nM.
Found: 1

Lookup: Please let me know if Nc1ncccc1-c1nc2ccc(-n3nccn3)nc2n1-c1ccc2c(c1)CC[C@@H]2n1cc(C2CC2)nn1 shows IC50 below 10 nM.
Found: -1

Lookup: Please let me know if Nc1ncccc1-c1nc2ccc(N3CCOCC3)nc2n1-c1ccc2c(c1)CC[C@@H]2NC(=O)c1ccc(C(F)F)nc1 shows IC50 below 10 nM.
Found: -1

----------
study system: AKT2 (Homo sapiens, UniProt P31751)
Construct: expressed in transfected cells; host or cells: HEK293
assay protocol: Live cell AKT2 target engagement by NanoBRET competitive probe displacement in HEK293 cells
Type: binding
condition label: NanoBRET live cell target engagement, HEK293 cells, 2 h at 37° C.; read-out: AKT2 IC50
Would you mind telling me the reported IC50 of each entry?
Form entry: value (nM) — number only.

Lookup: Determine its reported IC50: Cn1c(C(=O)N[C@H]2CCc3cc(-n4c(-c5cccnc5N)nc5ccc(-n6cccn6)nc54)ccc32)cc2ccccc2c1=O [Compound 8]
Found: 55.8

Lookup: Determine its reported IC50: COc1cncc(C(=O)N[C@H]2CCc3cc(-n4c(-c5cccnc5N)nc5ccc(-n6cccn6)nc54)ccc32)c1 [Compound 21]
Found: 30.2

Lookup: Determine its reported IC50: Nc1ncccc1-c1nc2ccc(-n3cccn3)nc2n1-c1ccc2c(c1)CC[C@@H]2NC(=O)c1cnc(C(F)F)s1 [Compound 376]
Found: 151

Lookup: Determine its reported IC50: Nc1ncccc1-c1nc2ccc(-n3cccn3)nc2n1-c1ccc2c(c1)CC[C@@H]2NC(=O)c1ccnn1C(F)F [Compound 170]
Found: 1380

Lookup: Determine its reported IC50: Nc1ncccc1-c1nc2ccc(-n3cccn3)nc2n1-c1ccc2c(c1)CC(F)[C@@H]2NC1CCN(C(=O)C2CC2)CC1 (single isomer, unassigned) [Compound 386]
Found: 1310

Lookup: Determine its reported IC50: Cc1cc2c(=O)n([C@H]3CCc4cc(-n5c(-c6cccnc6N)nc6ccc(-n7cccn7)nc65)ccc43)cnc2cn1 [Compound 81]
Found: 2900

----------
study system: AKT2 (Homo sapiens)
Construct: expressed in transfected cells; host or cells: HEK293
assay protocol: Live cell AKT2 target engagement by NanoBRET competitive probe displacement in HEK293 cells
Assay type: binding
condition label: NanoBRET live cell target engagement, HEK293 cells, 2 h at 37° C.; read-out: AKT2 IC50
pIC50: −log10 of the molar value.
Is pIC50 at least 7? Then label 1. If not, label 0.

Lookup: Hi, just wondering whether Nc1ncccc1-c1nc2ccc(-n3cccn3)nc2n1-c1ccc2c(c1)CC[C@@H]2NC(=O)Nc1ccccc1 shows pIC50 of 7 or higher.
Found: label 0

Lookup: Hi, just wondering whether Nc1ncccc1-c1nc2ccc(-n3cccn3)nc2n1-c1ccc2c(c1)CC[C@@H]2n1cnnc1Cc1ccccc1 shows pIC50 of 7 or higher.
Found: label 0

Lookup: Hi, just wondering whether Nc1ncccc1-c1nc2ccc(-n3cccn3)nc2n1-c1ccc2c(c1)CC[C@@H]2NC(=O)c1cncs1 shows pIC50 of 7 or higher.
Found: label 0

Lookup: Hi, just wondering whether Nc1ncccc1-c1nc2ccc(-n3nccn3)nc2n1-c1ccc2c(c1)CC[C@@H]2NC(=O)c1cnc(C(F)F)cn1 shows pIC50 of 7 or higher.
Found: label 0

Lookup: Hi, just wondering whether Cn1ccc(CN[C@H]2CCc3cc(-n4c(-c5cccnc5N)nc5ccc(-n6cccn6)nc54)ccc32)n1 shows pIC50 of 7 or higher.
Found: label 0

Lookup: Hi, just wondering whether Nc1ncccc1-c1nc2ccc(-n3nccn3)nc2n1-c1ccc2c(c1)CC[C@@H]2n1cc(C2CC2)nn1 shows pIC50 of 7 or higher.
Found: label 0

Lookup: Hi, just wondering whether COc1nccc(C(=O)N[C@H]2CCc3cc(-n4c(-c5cccnc5N)nc5ccc(-n6cccn6)nc54)ccc32)c1C shows pIC50 of 7 or higher.
Found: label 1

Lookup: Hi, just wondering whether COc1cc(C(=O)N[C@H]2CCc3cc(-n4c(-c5cccnc5N)nc5ccc(-n6cccn6)nc54)ccc32)c(C)cn1 shows pIC50 of 7 or higher.
Found: label 1

Lookup: Hi, just wondering whether Cc1csc(-c2ccc3nc(-c4cccnc4N)n(-c4ccc5c(c4)CC[C@@H]5NC(=O)c4ccn(C)n4)c3n2)n1 shows pIC50 of 7 or higher.
Found: label 0

Lookup: Hi, just wondering whether Cc1ncsc1C(=O)N[C@H]1CCc2cc(-n3c(-c4cccnc4N)nc4ccc(-n5cccn5)nc43)ccc21 shows pIC50 of 7 or higher.
Found: label 0

Lookup: Hi, just wondering whether Nc1ncccc1-c1nc2ccc(-n3cccn3)nc2n1-c1ccc2c(c1)CC[C@@H]2NC(=O)c1nccnc1C(F)F shows pIC50 of 7 or higher.
Found: label 0

Value source: patent US12624034B2
